# MEASURED_ON: Serine/threonine-protein kinase mTOR (Homo sapiens) (UniProt P42345)
# APPLIED_CONDITIONS: at 10 µM
Tag: met if measured residual activity is not below 90%, not met if it is.

Solved cases below.
INSERT INTO assay_data (cpd_smiles, measured_on, qualitative_label) VALUES
  ('c1ccc(-c2cnc(Nc3ccc(OCCN4CCCC4)cc3)s2)cc1', 'Serine/threonine-protein kinase mTOR (Homo sapiens) (UniProt P42345)', 'met'),
  ('O=C1Nc2ccc(Cl)cc2/C1=C/c1cc(Cl)c(O)c(Cl)c1', 'Serine/threonine-protein kinase mTOR (Homo sapiens) (UniProt P42345)', 'not met'),
  ('COc1ccc(COc2ccc(Cc3cnc(N)nc3N)cc2OC)cc1', 'Serine/threonine-protein kinase mTOR (Homo sapiens) (UniProt P42345)', 'met'),
  ('COc1ccc2c(c1)c(C1=C(c3c[nH]c4ccccc34)C(=O)NC1=O)cn2CCCN(C)C', 'Serine/threonine-protein kinase mTOR (Homo sapiens) (UniProt P42345)', 'met'),
  ('O=c1cc(N2CCOCC2)oc2c(-c3ccccc3)cccc12', 'Serine/threonine-protein kinase mTOR (Homo sapiens) (UniProt P42345)', 'not met');

--- query ---
Quick check, residual activity >= 90%? Fc1ccc(-c2nc3n(c2-c2ccncc2)CCS3)cc1 not met
